molecular target: SPM-1 (Pseudomonas aeruginosa); assay: Fluorogenic β-lactamase inhibition assay (FC-5 substrate), SPM-1; details: 10 min preincubation
Sequence (Q8G9Q0 entry or part of it): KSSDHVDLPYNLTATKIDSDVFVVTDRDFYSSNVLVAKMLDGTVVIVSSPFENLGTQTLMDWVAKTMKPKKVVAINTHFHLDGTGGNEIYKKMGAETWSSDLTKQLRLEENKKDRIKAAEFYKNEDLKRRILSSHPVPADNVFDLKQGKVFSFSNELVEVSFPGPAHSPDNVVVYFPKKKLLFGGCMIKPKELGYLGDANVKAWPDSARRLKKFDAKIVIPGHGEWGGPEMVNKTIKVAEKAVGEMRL
recorded metric: IC50

As a guide, the following entries are already answered.
compound=O=C(N[C@H]1Cc2cccc(C(=O)O)c2O[B-]1(O)O)c1ccc(CN2CCNCC2)cc1 recorded_metric=IC50 measured="13.9 µM"
compound=NCCNCc1ccc(C(=O)N[C@H]2Cc3cccc(C(=O)O)c3O[B-]2(O)O)cc1 recorded_metric=IC50 measured="36.3 µM"
compound=O=C(O)c1cccc2c1O[B-](O)(O)[C@@H](NC(=O)C1CCCCC1)C2 recorded_metric=IC50 measured="24.1 µM"
compound="NCC1CCC(C(=O)N[C@H]2Cc3cccc(C(=O)O)c3O[B-]2(O)O)CC1 (some centres unmarked)" recorded_metric=IC50 measured="16 µM"

Now consider the entry below.
For "NCc1ccc(C(=O)N[C@H]2Cc3cccc(C(=O)O)c3O[B-]2(O)O)cc1" , what is its reported IC50?
16.7 µM

====

biological target: TEM-1 (Escherichia coli, UniProt P62593); construct: made in house; host or cells: E. coli; test: Fluorogenic β-lactamase inhibition assay (FC-5 substrate), TEM-1; type: biochemical
Sequence (P62593 24-286 limits assumed): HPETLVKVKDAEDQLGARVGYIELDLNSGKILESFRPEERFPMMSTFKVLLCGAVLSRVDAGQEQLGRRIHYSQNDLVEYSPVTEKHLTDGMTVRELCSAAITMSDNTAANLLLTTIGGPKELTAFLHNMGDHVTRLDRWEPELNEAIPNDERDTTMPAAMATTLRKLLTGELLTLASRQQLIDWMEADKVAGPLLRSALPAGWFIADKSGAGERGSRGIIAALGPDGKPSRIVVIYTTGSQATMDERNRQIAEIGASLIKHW
Quick rule for you: pIC50 at 9 or higher means true, lower means false.

# count of solved cases: 3
molecule="NCCNCc1ccc(C(=O)N[C@H]2Cc3cccc(C(=O)O)c3O[B-]2(O)O)cc1 [compound 5]" test_target="TEM-1 (Escherichia coli, UniProt P62593)" group=false
molecule="NCC1CCC(C(=O)N[C@H]2Cc3cccc(C(=O)O)c3O[B-]2(O)O)CC1 (some centres unmarked) [compound 3]" test_target="TEM-1 (Escherichia coli, UniProt P62593)" group=false
molecule="O=C(N[C@H]1Cc2cccc(C(=O)O)c2O[B-]1(O)O)c1ccc(CN2CCNCC2)cc1 [compound 4]" test_target="TEM-1 (Escherichia coli, UniProt P62593)" group=true

Confirm if pIC50 reported for the molecule NCc1ccc(C(=O)N[C@H]2Cc3cccc(C(=O)O)c3O[B-]2(O)O)cc1 [compound 2] is 9 or above.
false

====

biological target: BcII (Bacillus cereus, UniProt P04190); assay: Fluorogenic β-lactamase inhibition assay (FC-5 substrate), BcII; settings: 10 min preincubation
Sequence (P04190 31-257): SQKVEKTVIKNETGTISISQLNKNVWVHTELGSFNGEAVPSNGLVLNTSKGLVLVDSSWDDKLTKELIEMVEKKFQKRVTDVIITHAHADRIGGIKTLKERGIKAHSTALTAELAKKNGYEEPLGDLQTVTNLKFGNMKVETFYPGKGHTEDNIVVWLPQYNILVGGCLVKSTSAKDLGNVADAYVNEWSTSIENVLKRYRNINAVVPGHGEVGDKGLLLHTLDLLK
Items are presented alongside their recorded IC50.
All answers are understood in nM, so give the number only.

As a guide, the following entries are already answered.
molecule=O=C(O)c1cccc2c1O[B-](O)(O)[C@@H](NC(=O)C1CCCCC1)C2 measured=7270
molecule=NCc1ccc(C(=O)N[C@H]2Cc3cccc(C(=O)O)c3O[B-]2(O)O)cc1 measured=300
molecule=O=C(N[C@H]1Cc2cccc(C(=O)O)c2O[B-]1(O)O)c1ccc(CN2CCNCC2)cc1 measured=520
molecule="NCC1CCC(C(=O)N[C@H]2Cc3cccc(C(=O)O)c3O[B-]2(O)O)CC1 (some centres unmarked)" measured=960

For "NCCNCc1ccc(C(=O)N[C@H]2Cc3cccc(C(=O)O)c3O[B-]2(O)O)cc1" , what is its reported IC50?
1140

====

Items are presented alongside their recorded IC50.
target: OXA-10 (Pseudomonas aeruginosa); construct: made in house; host or cells: E. coli; experiment: Fluorogenic β-lactamase inhibition assay (FC-5 substrate), OXA-10; assay type: biochemical; details: 10 min preincubation
All answers are understood in µM, so give the number only.

compound=NCc1ccc(C(=O)N[C@H]2Cc3cccc(C(=O)O)c3O[B-]2(O)O)cc1 unit_spec=µM measured=5.1
compound=O=C(N[C@H]1Cc2cccc(C(=O)O)c2O[B-]1(O)O)c1ccc(CN2CCNCC2)cc1 unit_spec=µM measured=2.26
compound="NCC1CCC(C(=O)N[C@H]2Cc3cccc(C(=O)O)c3O[B-]2(O)O)CC1 (stereo partly shown)" unit_spec=µM measured=0.83

Now consider the entry below.
For "NCCNCc1ccc(C(=O)N[C@H]2Cc3cccc(C(=O)O)c3O[B-]2(O)O)cc1" , what is its reported IC50?
12.7

====

biological target: VIM-2 (Escherichia coli, UniProt Q5U7L7); assay: Fluorogenic β-lactamase inhibition assay (FC-5 substrate), VIM-2; details: 10 min preincubation
recorded metric: log10 IC50 (log10 of the value in nM)
Hello, just confirming the data are log10 of IC50 with units of nM.

As a guide, the following entries are already answered.
molecule=NCc1ccc(C(=O)N[C@H]2Cc3cccc(C(=O)O)c3O[B-]2(O)O)cc1 measured=0.48
molecule=NCCNCc1ccc(C(=O)N[C@H]2Cc3cccc(C(=O)O)c3O[B-]2(O)O)cc1 measured=0.30
molecule="NCC1CCC(C(=O)N[C@H]2Cc3cccc(C(=O)O)c3O[B-]2(O)O)CC1 (some centres unmarked)" measured=1.04
molecule=O=C(O)c1cccc2c1O[B-](O)(O)[C@@H](NC(=O)C1CCCCC1)C2 measured=1.71

Now consider the entry below.
For "O=C(N[C@H]1Cc2cccc(C(=O)O)c2O[B-]1(O)O)c1ccc(CN2CCNCC2)cc1" , what is its reported log10 IC50?
1.15

====

target: SPM-1 (Pseudomonas aeruginosa); assay: Fluorogenic β-lactamase inhibition assay (FC-5 substrate), SPM-1; type: biochemical
recorded metric: pIC50

As a guide, the following entries are already answered.
compound=O=C(N[C@H]1Cc2cccc(C(=O)O)c2O[B-]1(O)O)c1ccc(CN2CCNCC2)cc1 measured=4.8
compound=NCCNCc1ccc(C(=O)N[C@H]2Cc3cccc(C(=O)O)c3O[B-]2(O)O)cc1 measured=4.4
compound="NCC1CCC(C(=O)N[C@H]2Cc3cccc(C(=O)O)c3O[B-]2(O)O)CC1 (some centres unmarked)" measured=4.8

For "O=C(O)c1cccc2c1O[B-](O)(O)[C@@H](NC(=O)C1CCCCC1)C2" , what is its reported pIC50?
4.6

Please give the result for "NCc1ccc(C(=O)N[C@H]2Cc3cccc(C(=O)O)c3O[B-]2(O)O)cc1" too.
4.7

====

molecular target: CphA (Aeromonas hydrophila); construct: made in house; host or cells: E. coli; experiment: B2 MBL inhibition assay (meropenem substrate), CphA; assay type: biochemical, Aeromonas hydrophilia
Sequence (P26918 28-254): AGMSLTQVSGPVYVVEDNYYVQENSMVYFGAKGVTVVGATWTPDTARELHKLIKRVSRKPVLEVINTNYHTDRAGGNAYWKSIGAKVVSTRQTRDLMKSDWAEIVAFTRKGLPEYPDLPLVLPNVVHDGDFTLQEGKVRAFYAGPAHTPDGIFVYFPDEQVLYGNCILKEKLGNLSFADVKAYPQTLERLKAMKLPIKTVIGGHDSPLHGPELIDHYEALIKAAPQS
recorded metric: pIC50
Number, no unit, nothing else.

compound=O=C(O)c1cccc2c1O[B-](O)(O)[C@@H](NC(=O)C1CCCCC1)C2 recorded_metric=pIC50 measured=5.3

Now consider the entry below.
For NCC1CCC(C(=O)N[C@H]2Cc3cccc(C(=O)O)c3O[B-]2(O)O)CC1 (some centres unmarked) , what is its reported pIC50?
4.68

====

molecular target: OXA-10 (Pseudomonas aeruginosa, UniProt P14489); construct: made in house; host or cells: E. coli; test: Fluorogenic β-lactamase inhibition assay (FC-5 substrate), OXA-10; format: biochemical
Sequence (P14489 20-266, species assumed): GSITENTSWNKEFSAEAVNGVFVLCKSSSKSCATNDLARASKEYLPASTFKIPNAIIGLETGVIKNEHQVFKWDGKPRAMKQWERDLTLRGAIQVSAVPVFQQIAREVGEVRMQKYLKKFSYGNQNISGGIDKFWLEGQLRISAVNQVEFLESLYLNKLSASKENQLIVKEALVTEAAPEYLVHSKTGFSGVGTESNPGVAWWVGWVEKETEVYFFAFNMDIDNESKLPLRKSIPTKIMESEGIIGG
recorded metric: pIC50
Number, no unit, nothing else.

As a guide, the following entries are already answered.
compound="NCC1CCC(C(=O)N[C@H]2Cc3cccc(C(=O)O)c3O[B-]2(O)O)CC1 (some centres unmarked) [compound 3]" measured=6.0
compound="NCCNCc1ccc(C(=O)N[C@H]2Cc3cccc(C(=O)O)c3O[B-]2(O)O)cc1 [compound 5]" measured=4.9
compound="O=C(O)c1cccc2c1O[B-](O)(O)[C@@H](NC(=O)C1CCCCC1)C2 [compound 1]" measured=6.4
compound="NCc1ccc(C(=O)N[C@H]2Cc3cccc(C(=O)O)c3O[B-]2(O)O)cc1 [compound 2]" measured=5.2

Now consider the entry below.
Value wanted: pIC50 (OXA-10 (Pseudomonas aeruginosa, UniProt P14489)) of entry O=C(N[C@H]1Cc2cccc(C(=O)O)c2O[B-]1(O)O)c1ccc(CN2CCNCC2)cc1 [compound 4]
5.6

====

Molecular target: VIM-2 (Escherichia coli, UniProt Q5U7L7)
Construct: made in house; host or cells: E. coli
Assay: Fluorogenic β-lactamase inhibition assay (FC-5 substrate), VIM-2
Assay type: biochemical
Protocol: Kinetic and inhibition analyses, and ^19F NMR studies[10] against bacterial β-lactamases were performed as described. The FC-5 cephalosporin[9] was used as substrate for BcII, VIM-2, IMP-1, NDM-1, SPM-1, TEM-1 and OXA-10, meropenem[28] for CphA and nitrocefin[34] for PBP 3 and PBP 5. […] The experiments were performed using a PHERAstar FS microplate reader (BMG Labtech) at room temperature (24–25 °C). […] The IC50 values were determined using the software package Graph Prism 5.
recorded metric: pIC50

compound=NCc1ccc(C(=O)N[C@H]2Cc3cccc(C(=O)O)c3O[B-]2(O)O)cc1 measured=8.5

For NCC1CCC(C(=O)N[C@H]2Cc3cccc(C(=O)O)c3O[B-]2(O)O)CC1 (stereo partly shown) , what is its reported pIC50?
7.9

Please give the result for "O=C(O)c1cccc2c1O[B-](O)(O)[C@@H](NC(=O)C1CCCCC1)C2" too.
7.3

Please give the result for "O=C(N[C@H]1Cc2cccc(C(=O)O)c2O[B-]1(O)O)c1ccc(CN2CCNCC2)cc1" too.
7.8

Data credit: paper PMC4979060
